- TARGET OR TEST SYSTEM: CDK2 (Homo sapiens, UniProt P24941)
- Construct: endogenous in cells; host or cells: MKN1 cells
- ASSAY OVERVIEW: CDK2 degradation in MKN1 cells (AlphaLISA)
- Assay type: cell-based
- RUN PARAMETERS: 14 h incubation, read-out: CDK2 degradation 14 h: Mean external-Abs DC50
- Experimental: Degradation of CDK2 in MKN1 cells was measured using AlphaLISA technology (PerkinElmer ALSU-TCDK2-A10K). MKN1 cells were maintained in RPMI1640 medium containing 10% FBS+1× penn/strep. […] Under subdued light, the plates were analyzed on an EnVision Microplate Reader (PerkinElmer Model 2009-0030). […] The data were analyzed using Xlfit (v5.3. 1.3) and the dose-dependent CDK2 degradation data were fit using a four-parameter logistic model to calculate DC50.
ENDPOINT NAME: DC50

See these solved cases before continuing.
Cc1cc(S(=O)(=O)N2CCC(N(CC(F)F)CC3CCN(c4cccc5c4n(C)c(=O)n5C4CCC(=O)NC4=O)CC3)CC2)ccc1Nc1ncc2cc(Cl)c(=O)n(C3CCCC34CC4)c2n1 (centres unmarked) [I-353] :: > 1000 nM
Cc1cc(S(=O)(=O)C2CC3(CCN(CC4CCN(c5ccc6c(c5F)n(C)c(=O)n6C5CCC(=O)NC5=O)CC4)CC3)C2)ccc1Nc1ncc2cc(Cl)c(=O)n(C(C)C3CC3)c2n1 (centres unmarked) [I-285] :: < 100 nM
Cc1cc(S(=O)(=O)C2CC3(CCN(CC4(F)CCN(c5cccc6c5n(C)c(=O)n6C5CCC(=O)NC5=O)CC4)CC3)C2)ccc1Nc1ncc2cc(Cl)c(=O)n(C3CCCC3)c2n1 (centres unmarked) [I-45] :: 100 to 500 nM
Cc1cc(S(=O)(=O)C2CC3(CCN(CC4CCN(c5ccc(NC6CCC(=O)NC6=O)cc5)CC4)CC3)C2)ccc1Nc1ncc2cc(Cl)c(=O)n(C3CCCC3)c2n1 (centres unmarked) [I-37] :: 100 to 500 nM

Consider the record given below.
Q) For the compound shown here, Cc1cc(S(=O)(=O)NCCOCCOCCCc2ccc3c(c2)n(C)c(=O)n3C2CCC(=O)NC2=O)ccc1Nc1ncc2ccc(=O)n(C3CCCC3)c2n1 (centres unmarked) [I-475] , give the reported DC50.
A) < 100 nM

====

- TARGET OR TEST SYSTEM: CDK2 (Homo sapiens, UniProt P24941)
- Construct: endogenous in cells; host or cells: MKN1 cells
- ASSAY OVERVIEW: CDK2 degradation in MKN1 cells (AlphaLISA)
- Type: cell-based
- RUN PARAMETERS: 14 h incubation, read-out: CDK2 degradation 14 h: Mean external-Abs DC50
Provide the reported DC50 of each item.

Cc1cc(S(=O)(=O)C2CC3(CCN(CC4CCN(c5ccc6c(c5F)n(C)c(=O)n6C5CCC(=O)NC5=O)CC4)CC3)C2)ccc1Nc1ncc(C(F)(F)F)c(N2CCCC(C)(O)C2)n1 (centres unmarked) :: < 0.1 µM
Cc1cc(S(=O)(=O)N[C@H]2CC[C@H](OCCN3CCC(c4ccc5c(c4)n(C)c(=O)n5C4CCC(=O)NC4=O)CC3)CC2)ccc1Nc1ncc2cc(Cl)c(=O)n(C3CCCC3)c2n1 (some centres unmarked) :: < 0.1 µM
Cc1cc(S(=O)(=O)NCCOCCOCCCc2cccc3c2n(C)c(=O)n3C2CCC(=O)NC2=O)ccc1Nc1ncc2cc(C(F)F)c(=O)n([C@@H]3CCC[C@]3(C)O)c2n1 (some centres unmarked) :: < 0.1 µM

Look up DC50 for the entries below, preserving their order.
1. CC1CC(NS(=O)(=O)c2ccc(Nc3ncc(C(F)(F)F)c(N4CCCC(C)(O)C4)n3)c(F)c2)CCN1CC1CCN(c2ccc(C3CCC(=O)NC3=O)c(F)c2)CC1 (centres unmarked) [I-1037]
2. Cc1cc(S(=O)(=O)NCCOCCOCCCc2ccc3c(c2)n(C)c(=O)n3C2CCC(=O)NC2=O)ccc1Nc1ncc2cc(C(F)F)c(=O)n(C3CCCC3(C)O)c2n1 (centres unmarked)

A)
["< 0.1 µM", "< 0.1 µM"]

Look up DC50 for the entries below, preserving their order.
1. Cc1cc(S(=O)(=O)NCCCN2CCN(CC3CCN(c4ccc5c(c4)n(C)c(=O)n5C4CCC(=O)NC4=O)CC3)CC2)ccc1Nc1ncc2cc(Cl)c(=O)n(C(C)C)c2n1 (centres unmarked)
2. Cc1cc(S(=O)(=O)N2CCC(N(C)CC3CCN(c4cccc5c4n(C)c(=O)n5C4CCC(=O)NC4=O)CC3)C(F)(F)C2)ccc1Nc1ncc2cc(Cl)c(=O)n(C3CCCC34CC4)c2n1 (centres unmarked)
3. COCc1cnc(Nc2ccc(S(=O)(=O)C3CC4(CCN(CC5CCN(c6ccc7c(c6F)n(C)c(=O)n7C6CCC(=O)NC6=O)CC5)CC4)C3)cc2C)nc1N1CCCC(C)(O)C1 (centres unmarked)
4. Cc1cc(S(=O)(=O)N2CCC(OCC#Cc3cccc4c3n(C)c(=O)n4C3CCC(=O)NC3=O)CC2)ccc1Nc1ncc2cc(Cl)c(=O)n(C3CCCC3)c2n1 (centres unmarked)

A)
1: < 0.1 µM; 2: > 1 µM; 3: > 1 µM; 4: > 1 µM

Look up DC50 for the entries below, preserving their order.
1. Cc1cc(S(=O)(=O)C2CCC(CN(C)C3CCN(c4cccc5c4n(C)c(=O)n5C4CCC(=O)NC4=O)CC3)CC2)ccc1Nc1ncc2cc(Cl)c(=O)n(C3CCCC34CC4)c2n1 (centres unmarked)
2. Cc1cc(S(=O)(=O)N2CC(CN(C)C3CCN(c4cccc5c4n(C)c(=O)n5C4CCC(=O)NC4=O)CC3)C2)ccc1Nc1ncc2cc(Cl)c(=O)n(C3CCCC3)c2n1 (centres unmarked)

A)
["< 0.1 µM", "0.1 to 0.5 µM"]

Values compiled from patent US20240173419A1.
